details: 353.15 K; 102 kPa; Liquid; Vibrating tube method
We begin with a simple list: items and their reported mass density.
Give just the numeric value; kg/m3 need not be written.

CCCCCCCCCCCC [dodecane]: 704.7
CCCCCCCCCC [decane]: 683.6
CCCCCCCCCCCCCCCCC [heptadecane]: 736.8
CCCCCCCCCCCCCCCC [hexadecane]: 731.9
CCCCc1ccccc1 [butylbenzene]: 811.7

Query string: Reported mass density, compound CCCCCCCCCCCCCC [tetradecane] : ____
Result string: 720.3

###

We begin with a simple list: items and their reported speed of sound.
settings: 303.15 K; 100 kPa; Liquid; Frequency=3 MHz; Sing-around technique in a fixed-path interferometer
Numbers after ± are expanded uncertainties.
Could you give the number and then its unit, please?

Solved cases (2 shown):
CCCCc1ccccc1: 1314.9 ± 0.9 m/s
CCCCCCCCCCCCCCCCC: 1330.9 ± 1.2 m/s

Could you now consider this next compound?
Query string: Reported speed of sound, compound "CCCCCCCCCCCCCC" : ____
Result string: 1293.6 ± 0.9 m/s

###

details: 293.15 K; 100 kPa; Liquid; Frequency=3 MHz; Sing-around technique in a fixed-path interferometer
We begin with a simple list: items and their reported speed of sound.
Give just the numeric value; m/s need not be written.

Solved cases (4 shown):
CCCCCCCCCCCC: 1297.9
CCCCCCCCCCCCCCCC: 1357.3
CCCCCCCCCCCCCC: 1331.2
CCCCCCCCCC: 1253.8

Could you now consider this next molecule?
Query string: Reported speed of sound, molecule "CCCCc1ccccc1" : ____
Result string: 1353.7

###

We begin with a simple list: items and their reported mass density.
details: 303.15 K; 102 kPa; Liquid; Vibrating tube method
Give just the numeric value; kg/m3 need not be written.

CCCCCCCCCC [decane]: 722.31
CCCCCCCCCCCCCC [tetradecane]: 755.65
CCCCCCCCCCCCCCCC [hexadecane]: 766.58
CCCCc1ccccc1 [butylbenzene]: 852.49
CCCCCCCCCCCC [dodecane]: 741.54

Query string: Reported mass density, compound CCCCCCCCCCCCCCCCC [heptadecane] : ____
Result string: 771.02

###

conditions: 363.15 K; 102 kPa; Liquid; Concentric cylinders viscometry
We begin with a simple list: items and their reported viscosity.
Give just the numeric value; mPa·s need not be written.

Solved cases (5 shown):
CCCCCCCCCCCCCCCC: 1
CCCCc1ccccc1: 0.469
CCCCCCCCCCCCCC: 0.76
CCCCCCCCCC: 0.396
CCCCCCCCCCCCCCCCC: 1.14

Could you now consider this next molecule?
Query string: Reported viscosity, molecule "CCCCCCCCCCCC" : ____
Result string: 0.562

###

conditions: 333.15 K; 102 kPa; Liquid; Vibrating tube method
property.label: mass density (kg/m3)
Give just the numeric value; kg/m3 need not be written.

Solved cases (3 shown):
CCCCCCCCCCCCCC: 734.4
CCCCCCCCCCCCCCCC: 745.82
CCCCCCCCCC: 699.29

Query string: Reported mass density, molecule "CCCCCCCCCCCC" : ____
Result string: 719.59

Query string: Reported mass density, molecule "CCCCc1ccccc1" : ____
Result string: 828.21

Query string: Reported mass density, molecule "CCCCCCCCCCCCCCCCC" : ____
Result string: 750.45

###

We begin with a simple list: items and their reported speed of sound.
conditions: 323.15 K; 100 kPa; Liquid; Frequency=3 MHz; Sing-around technique in a fixed-path interferometer
Give just the numeric value; m/s need not be written.

Solved cases (5 shown):
CCCCCCCCCC: 1137.3
CCCCCCCCCCCC: 1184.7
CCCCCCCCCCCCCCCC: 1247.5
CCCCc1ccccc1: 1238.7
CCCCCCCCCCCCCC: 1220.1

Query string: Reported speed of sound, compound "CCCCCCCCCCCCCCCCC" : ____
Result string: 1258.8

###

conditions: 323.15 K; 102 kPa; Liquid; Concentric cylinders viscometry
We begin with a simple list: items and their reported viscosity.
Give just the numeric value; mPa·s need not be written.

Solved cases (3 shown):
CCCCCCCCCC: 0.615
CCCCCCCCCCCCCC: 1.32
CCCCCCCCCCCCCCCCC: 2.14

Query string: Reported viscosity, compound "CCCCc1ccccc1" : ____
Result string: 0.713

Query string: Reported viscosity, compound "CCCCCCCCCCCCCCCC" : ____
Result string: 1.84

Query string: Reported viscosity, compound "CCCCCCCCCCCC" : ____
Result string: 0.916

###

details: 333.15 K; 102 kPa; Liquid; Concentric cylinders viscometry
We begin with a simple list: items and their reported viscosity.
Give just the numeric value; mPa·s need not be written.

CCCCCCCCCCCCCC: 1.13

Query string: Reported viscosity, compound "CCCCc1ccccc1" : ____
Result string: 0.636

Query string: Reported viscosity, compound "CCCCCCCCCCCC" : ____
Result string: 0.801

###

settings: 293.15 K; 102 kPa; Liquid; Concentric cylinders viscometry
Friendly reminder: viscosity below 1 mPa·s is T, at or above is F.

Solved entries (count: 2):
CCCCCCCCCC [decane]: T
CCCCCCCCCCCCCC [tetradecane]: F

Query string: Field: below-cutoff. Rule: recorded viscosity strictly less than 1 mPa·s. Subject: CCCCCCCCCCCCCCCC [hexadecane]
Result string: F

Query string: Field: below-cutoff. Rule: recorded viscosity strictly less than 1 mPa·s. Subject: CCCCc1ccccc1 [butylbenzene]
Result string: F

Query string: Field: below-cutoff. Rule: recorded viscosity strictly less than 1 mPa·s. Subject: CCCCCCCCCCCC [dodecane]
Result string: F

###

settings: 373.15 K; 102 kPa; Liquid; Concentric cylinders viscometry
property.label: viscosity (mPa·s)
Give just the numeric value; mPa·s need not be written.

CCCCCCCCCCCCCCCC: 0.887
CCCCCCCCCCCCCC: 0.679
CCCCc1ccccc1: 0.43

Query string: Reported viscosity, molecule "CCCCCCCCCCCCCCCCC" : ____
Result string: 1

Query string: Reported viscosity, molecule "CCCCCCCCCC" : ____
Result string: 0.362

Query string: Reported viscosity, molecule "CCCCCCCCCCCC" : ____
Result string: 0.506

###

settings: 333.15 K; 100 kPa; Liquid; Frequency=3 MHz; Sing-around technique in a fixed-path interferometer
property.label: speed of sound (m/s)
Give just the numeric value; m/s need not be written.

Solved cases (5 shown):
CCCCCCCCCCCCCCCC [hexadecane]: 1212.1
CCCCCCCCCCCC [dodecane]: 1148
CCCCCCCCCCCCCC [tetradecane]: 1184.1
CCCCc1ccccc1 [butylbenzene]: 1201.4
CCCCCCCCCCCCCCCCC [heptadecane]: 1223.8

Could you now consider this next molecule?
Query string: Reported speed of sound, molecule CCCCCCCCCC [decane] : ____
Result string: 1099.3

###

We begin with a simple list: items and their reported viscosity.
details: 313.15 K; 102 kPa; Liquid; Concentric cylinders viscometry
± gives the expanded uncertainty stated by the source.
Could you give the number and then its unit, please?

Solved cases (3 shown):
CCCCc1ccccc1: 0.801 ± 0.006 mPa·s
CCCCCCCCCCCCCC: 1.56 ± 0.01 mPa·s
CCCCCCCCCCCCCCCC: 2.22 ± 0.01 mPa·s

Query string: Reported viscosity, compound "CCCCCCCCCCCCCCCCC" : ____
Result string: 2.61 ± 0.01 mPa·s

Query string: Reported viscosity, compound "CCCCCCCCCC" : ____
Result string: 0.693 ± 0.006 mPa·s

Query string: Reported viscosity, compound "CCCCCCCCCCCC" : ____
Result string: 1.06 ± 0.01 mPa·s

###

details: 313.15 K; 102 kPa; Liquid; Vibrating tube method
Short version: mass density at least 800 kg/m3 is label 1, less is label 0.

Solved entries (count: 3):
CCCCc1ccccc1: label 1
CCCCCCCCCCCCCCCC: label 0
CCCCCCCCCCCC: label 0

Query string: Given the entry "CCCCCCCCCCCCCC" , answer whether its mass density meets or surpasses 800 kg/m3.
Result string: label 0

Query string: Given the entry "CCCCCCCCCC" , answer whether its mass density meets or surpasses 800 kg/m3.
Result string: label 0

Query string: Given the entry "CCCCCCCCCCCCCCCCC" , answer whether its mass density meets or surpasses 800 kg/m3.
Result string: label 0

###

details: 353.15 K; 102 kPa; Liquid; Concentric cylinders viscometry
We begin with a simple list: items and their reported viscosity.
Give just the numeric value; mPa·s need not be written.

Solved cases (5 shown):
CCCCCCCCCCCC: 0.627
CCCCCCCCCCCCCCCCC: 1.3
CCCCCCCCCC: 0.436
CCCCCCCCCCCCCC: 0.858
CCCCCCCCCCCCCCCC: 1.14

Could you now consider this next molecule?
Query string: Reported viscosity, molecule "CCCCc1ccccc1" : ____
Result string: 0.516
